target: MEK6 (Homo sapiens (Human)); experiment: KINOMEscan competition binding assay (Kd); conditions: read-out: Kd Values Against MEK Kinases Isoforms: MEK6
Sequence (P52564 whole entry, canonical isoform): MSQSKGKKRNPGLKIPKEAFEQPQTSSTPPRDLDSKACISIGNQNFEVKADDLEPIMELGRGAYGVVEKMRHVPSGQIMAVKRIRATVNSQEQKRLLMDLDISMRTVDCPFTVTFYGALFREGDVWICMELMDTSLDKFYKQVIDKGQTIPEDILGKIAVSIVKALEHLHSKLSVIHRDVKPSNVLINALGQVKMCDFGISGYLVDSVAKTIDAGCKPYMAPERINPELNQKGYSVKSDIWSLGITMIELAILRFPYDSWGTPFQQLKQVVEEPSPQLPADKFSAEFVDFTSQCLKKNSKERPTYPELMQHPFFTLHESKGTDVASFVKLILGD
test.readout: Kd

Q: I would be grateful if you could share the reported Kd for `Nc1ncnc2c1c(-c1ccc(Oc3ccccc3)cc1)nn2C[C@@H]1SSC[C@@H]1O` .
Ans: 1 to 10 µM

Q: Next entry: `Nc1ncnc2c1c(-c1ccc(Oc3ccccc3)cc1)nn2C[C@H]1SSC[C@H]1O`
Ans: 1 to 10 µM

###

target: HCK (Homo sapiens (Human), UniProt P08631); assay: Rabbit reticulocyte lysate assay (KinaseSeeker competition binding); conditions: read-out: IC50 Activity Levels Against SRC Family Kinases: HCK
Sequence (P08631 whole entry): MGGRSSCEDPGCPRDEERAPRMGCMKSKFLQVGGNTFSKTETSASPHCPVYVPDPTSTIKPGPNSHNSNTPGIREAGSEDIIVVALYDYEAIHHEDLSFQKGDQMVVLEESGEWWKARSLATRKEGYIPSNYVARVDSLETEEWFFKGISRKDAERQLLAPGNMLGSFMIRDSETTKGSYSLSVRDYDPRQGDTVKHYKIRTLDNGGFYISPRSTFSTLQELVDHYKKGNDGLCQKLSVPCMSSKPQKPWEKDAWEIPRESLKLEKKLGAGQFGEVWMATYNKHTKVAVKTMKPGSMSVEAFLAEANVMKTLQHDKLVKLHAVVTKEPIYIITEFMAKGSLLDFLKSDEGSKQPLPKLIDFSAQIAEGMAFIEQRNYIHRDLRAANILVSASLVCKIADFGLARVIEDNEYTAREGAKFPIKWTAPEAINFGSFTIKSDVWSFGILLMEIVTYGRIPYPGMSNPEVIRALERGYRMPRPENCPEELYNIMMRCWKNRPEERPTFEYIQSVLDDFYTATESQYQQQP
test.readout: IC50

Q: I would be grateful if you could share the reported IC50 for `Nc1ncnc2c1c(-c1ccc(Oc3ccccc3)cc1)nn2C[C@H]1SSC[C@@H]1O` .
Ans: 100 to 999 nM
